molecular target: Collagenase from Clostridium histolyticum; assay: Collagenase inhibition bioassay in vitro (EnzChek gelatinase/collagenase kit); type: biochemical; conditions: log-probit analysis; read-out: IC50 (95% confidence interval)
measured_endpoint: IC50 (µM)
Numeric only. Scale: µM

Prompt: Which IC50 reading was recorded for the compound O.c1cnc2c(c1)ccc1cccnc12 [1,10-Phenanthroline monohydrate] ?
Response: 53.2
